Test system: A673/TR/shEF
Assay: cell viability (LOESS-normalised, relative to median of negative controls) (log2 ratio); higher = more viable cells (less compound effect), active = hit call of the paper (over 3 MAD below the median)
Settings: 2.5 µM; library screen: screen1; EWS-FLI1 expression: low (doxycycline-induced shRNA knockdown); treatment time: 72 h
The campaign covered roughly 3,200 compounds. About 300 (9.4%) showed activity. The sample as a whole holds a higher share of actives than the screen did.
cell viability (log2) listing for selected molecules.
Write the value as a bare number.

molecule	cell viability (log2)
COc1c(O)cc2occ(-c3ccc(O)cc3)c(=O)c2c1O	0.0895
CC=C(C)C(=O)OC1[C@@H]2C=C3C4CC(=O)O[C@@H](c5ccoc5)[C@]4(C)CCC3[C@@](C)(C2=O)[C@@H](C(O)C(=O)OC)C1(C)C (stereo not given in full)	0.0968
CC=C(C)C(=O)OC1Cc2c(ccc3ccc(=O)oc23)OC1(C)C (stereo not given)	0.0456

Request the reported cell viability (log2) associated with COC(=O)c1c(C)c2c(c(C)c1OC(C)=O)OC(=O)c1c(C)c(Cl)c(OC(C)=O)c(Cl)c1O2 -0.0376

Request: COc1cc(CN2CCN(Cc3ccccc3F)CC2)cc(OC)c1OC 0.127

----------
cell viability (log2) listing for selected compounds.
Tested on: A673/TR/shEF
Test: cell viability (LOESS-normalised, relative to median of negative controls) (log2 ratio); higher = more viable cells (less compound effect), active = hit call of the paper (over 3 MAD below the median)
Conditions: 2.5 µM; library screen: screen1; EWS-FLI1 expression: high (no doxycycline); treatment time: 72 h
In all, about 3,200 compounds went through this assay and about 300 (9.4%) showed activity. The sample as a whole holds a higher share of actives than the screen did.

> print(dat)
                                   compound                readout  observed.measurement
1  CC1=C(C(=O)Nc2ccccc2Cl)C(c2ccccc2Cl)NC(=S)N1 (configuration not stated)  cell viability (log2)      0.106 (inactive)
2  OC[C@@H](O)[C@@H](O)C(O)[C@H](O)[C@@H](O)CO (some centres not stated)  cell viability (log2)      0.138 (inactive)
3  O=C1C(CC[S+]([O-])c2ccccc2)C(=O)N(c2ccccc2)N1c1ccccc1 (configuration not stated)  cell viability (log2)      0.184 (inactive)
4                      CC(=O)O.CC(=O)O.[Cd]  cell viability (log2)     0.0042 (inactive)
5        O=S(=O)(c1ccc(Br)c2ccccc12)n1ccnc1  cell viability (log2)      0.103 (inactive)
6   COc1cc(CN2CCN(Cc3ccccc3F)CC2)cc(OC)c1OC  cell viability (log2)     0.0786 (inactive)

Request the reported cell viability (log2) associated with Brc1ccc(CN2CCN(Cc3ccco3)CC2)cc1 0.0829 (inactive)

Request: CC(C)=CCC[C@@H](C)[C@H]1CC[C@@]2(C)C3=C(CC[C@]12C)[C@@]1(C)CC[C@H](O)C(C)(C)[C@@H]1CC3 0.158 (inactive)

Request: CCCCC1C(=O)N(c2ccccc2)N(c2ccc(O)cc2)C1=O (configuration not stated) -0.129 (active)

Request: CC(=O)OC12CCCC(C)(CCC3C1CC3(C)C)C2 (configuration not stated) 0.116 (inactive)

Request: CC(C)CCCC(C)C1CCC2C3CCC4CC(=O)CCC4(C)C3CCC12C (configuration not stated) 0.169 (inactive)

Request: CC(=O)OC(CC(=O)[O-])C[N+](C)(C)C (configuration not stated) 0.0316 (inactive)
